Data origin: ChEMBL document CHEMBL1149957

# System: HL-60
# assay protocol: Tested for the inhibition of HL60 cell adhesion to recombinant E-selectin-IgG fusion protein measured by cell culture assay.
# Format: functional, cell-based
# test conditions: Homo sapiens
reported property: pIC50
Answers are plain numbers, as −log10 of the molar value.

Example entries and their recorded answers appear below.
molecule	pIC50
CC1OC(OC2C(OCCCCC(C(=O)O)C(=O)O)CCOC2COCCCCc2ccccc2)C(O)C(O)C1O (stereo not drawn)	2.32
CC1OC(OC2CCCCC2OC(=O)NCCCC(C(=O)O)C(=O)O)C(O)C(O)C1O (stereo not drawn)	3.00
CC1OC(OC2CCCCC2OC(=O)NCCCCC(C(=O)O)C(=O)O)C(O)C(O)C1O (stereo not drawn)	2.40

Working through the 3 molecules below one at a time, give pIC50 for each.
1. CC1OC(OC2C(OCCCCCC(C(=O)O)C(=O)O)CCOC2COCCCCc2ccccc2)C(O)C(O)C1O (stereo not drawn)
2. CC1OC(OC2CCCCC2OC(=O)NCCC(C(=O)O)C(=O)O)C(O)C(O)C1O (stereo not drawn)
3. CC(=O)N[C@H]1[C@H]([C@@H](O)[C@@H](O)CO)O[C@@](O[C@@H]2[C@H](O)[C@H](O[C@H]3[C@H](O[C@@H]4O[C@@H](C)[C@@H](O)[C@H](O)[C@@H]4O)[C@H](NC(C)=O)C(O)O[C@H]3CO)O[C@@H](CO)[C@@H]2O)(C(=O)O)C[C@H]1O (stereo partly drawn)

1. 2.59
2. 2.47
3. 2.82
